- TGT: Dickkopf-related protein 1 (Homo sapiens)
- METHOD SUMMARY: DKK1 binders on small-molecule microarrays, primary screen, biochemical, small-molecule microarray, 635 nm fluorescence scan (AID 1106);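 also: score merges emission near 667 nm with signal to noise over three replicate slides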
- SETTINGS: DKK1 binding, higher = more signal
Entries get a class label from measured composite z-score. See ranges: bottom bin (below -0.3), middle bin (-0.3 to below 0.5), top bin (0.5 or more)

Reference set (5 entries):
MOLECULE	LABEL CLASS
C#CCN(Cc1ccccc1Br)C(/C=C/c1ccccc1)CO (stereo unspecified)	middle bin
C=CCNC(=O)[C@@H]1[C@H]2C(=O)O[C@H](c3ccccc3)[C@H](c3ccccc3)N2[C@H](c2ccc(OCCO)cc2)[C@@]12C(=O)Nc1ccc(C#Cc3ccc(OC)cc3)cc12	top bin
C=CCNC(=O)[C@@H]1[C@H]2C(=O)O[C@H](c3ccccc3)[C@H](c3ccccc3)N2[C@H](c2ccccc2OCCO)[C@@]12C(=O)N(C(=O)OCCOC)c1ccc(C#CCNC(N)=O)cc12	middle bin
CN1C(=O)C2C=CC(C(O)C3CC=CCC3)N(NC(=O)OC(C)(C)C)C2C1=O (stereo unspecified)	middle bin
CN1C(=O)C2C=CC(C(O)C3CCCCC3)N(Nc3ccc([N+](=O)[O-])cc3[N+](=O)[O-])C2C1=O (stereo unspecified)	bottom bin

Category of O=C(NCc1ccccc1)[C@@]1(CCS(=O)(=O)c2ccccc2)N=C(c2ccc(OCCCO)cc2)O[C@H]1c1ccccc1 , please.
bottom bin

Would you mind sorting CN1C(=O)C2C=CC(C(O)c3ccccc3)N(Nc3ccccc3)C2C1=O (stereo unspecified) into the appropriate category?
bottom bin

Hi, small favor: classify C[C@@H]1ON(c2cccc(C(=O)OC(C)(C)C)c2)[C@H](c2ccc(Br)cc2)[C@H]1C(=O)N1C(=O)OC[C@H]1Cc1ccccc1 by its composite z-score when you get a moment.
top bin

Band of COc1ccc(C(=O)Nc2ccc(CN3C(=O)[C@@]4(O[C@@H](CC(=O)N5CCC[C@H]5CO)[C@H]([Si](C)(C)c5ccc(OC)cc5)[C@H]4C)c4ccccc43)cc2)cc1 ?
top bin

* * *

- METHOD SUMMARY: yeast growth modulation, basal conditions, primary screen, YJM789 clinical isolate, OD600, 24 h (AID 1089);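 also: growth of clinical yeast isolate S. cerevisiae YJM 789 seeded 1000 cells per well; test concentration not given here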
- SETTINGS: S. cerevisiae YJM789 growth, higher = more signal, called active from +8 up or from −8 down
ENDPOINT LABEL: z-score
Answer with the value's number alone.

COMPOUND	z-score
C#CCNC(=O)[C@H](Cc1ccccc1)NC(=O)CCC(=O)O	-0.136

Find the recorded z-score belonging to O=C1OCCC/C=C\[C@H]2OC34C=CCN(CCN5CCOCC5)C(=O)[C@H]3N(CCCO)C(=O)[C@@H]4C12 (stereo partly specified) and report it.
-1.35

Return reported z-score; argument: CCCCN1CC=CC23O[C@@H]4C=CCOC(=O)[C@@H]4[C@H]2C(=O)N(CCCCCO)[C@@H]3C1=O (stereo partly specified)
-0.404

Fill blank: measured z-score of the compound CN(C)C(=O)[C@@]1(Cc2ccccc2CN=[N+]=[N-])N=C(c2ccc(OCCCO)cc2)O[C@H]1c1ccccc1 is ____.
0.365

# z-score lookup, item COc1ccc([Si](C)(C)[C@@H]2[C@@H](CC(=O)N3Cc4ccccc4C[C@H]3CO)O[C@]3(C(=O)N(C)c4c(Br)cc(C)cc43)[C@H]2C)cc1
-0.069

Find the recorded z-score belonging to CN1C(=O)C2C=CC(C(O)C3CCCCC3)N(Nc3ccc([N+](=O)[O-])cc3[N+](=O)[O-])C2C1=O (stereo unspecified) and report it.
0.492

The measurements presented in this section are drawn from PubChem BioAssay.
